Test system: HS 578T breast
protocol_description: NCI tumour cell line growth inhibition, 48 h
Please go through the items and note down their TGI.
Give a bare numeral; the unit µM is implied.

// recorded TGI for CC(=O)Oc1ccc(/C(=C(\C)c2ccc(Cl)cc2)c2ccc(OCCN3CCCCC3)cc2)cc1 : 4.82

// recorded TGI for CSc1ccc(/C=C2\N=C(c3ccccc3)N(c3nc4cc(C)c(C)cc4s3)C2=O)cc1 : 92.1

// recorded TGI for NC(N)=N/N=C/c1ccc(-c2ccc(-c3cc(Cl)cc(Cl)c3)s2)cc1 : 4.05

// recorded TGI for CC1CCC2(CC1)NC1=C(CC(C)CC1)C1=C2CC(C)CC1 (stereo not given) : 63.2

// recorded TGI for COc1cc(C(=O)Nc2cc(OC)c3ccn(C)c3c2)cc2c1C[C@]1(C)CC[C@@H](O)C(C)(C)[C@H]1O2 : 2.05

// recorded TGI for COC(=O)C1=C(OC(=O)/C=C/c2ccc(Cl)cc2)C(C(=O)OC)[C@@]2(O)[C@@H](C(=O)OC)[C@H](C)C[C@@H]1[C@@H]2C(=O)OC (stereo not given in full) : 15.5

// recorded TGI for O=C(C/C(=N/O)c1cc(-c2ccccc2)no1)c1ccccc1 : 66.6

// recorded TGI for CN1CCN(Cc2ccc(NC(=O)c3cccc(C#Cc4cnc(N)c5ncccc45)c3F)cc2C(F)(F)F)CC1 : 8.66

// recorded TGI for COc1cc([C@@H]2C[C@H]2c2cc(SC)n[nH]2)cc(OC)c1OC : 45.2

// recorded TGI for CC(C)(C)c1c2c(c(C(C)(C)C)c3c1OCN(Cc1ccccc1)C3)OCN(Cc1ccccc1)C2 : 55.9

---

Please go through the items and note down their TGI.
System: OVCAR-3 ovarian
protocol_description: NCI tumour cell line growth inhibition, 48 h
Give a bare numeral; the unit µM is implied.

// recorded TGI for CC(=O)[CH-]C(=O)c1ccccc1.CC(=O)[CH-]C(=O)c1ccccc1.C[C@]12CCC(=O)C=C1CC[C@@H]1C2CC[C@@]2(C)C1CC[C@@H]2[O-].C[C@]12CCC(=O)C=C1CC[C@@H]1C2CC[C@@]2(C)C1CC[C@@H]2[O-].Cl.[Ti+4] (some centres undefined) : 65.5

// recorded TGI for CCOC(=O)C(C(=S)SC)c1nn2c(=O)cc(C)nc2s1 (centres undefined) : 34.8

// recorded TGI for CCCCCCCCn1ccc2cc(NC(=O)Cn3cc(CN4CCCCC4)nn3)ccc21 : 13.3

// recorded TGI for COc1ccc(-n2ccnc2-c2cc(OC)c(OC)c(OC)c2)cc1 : 5.03

// recorded TGI for CN1CCN(c2ccc3nc(-c4ccc5nc(-c6ccc(O)cc6)[nH]c5c4)[nH]c3c2)CC1 : 43.1

// recorded TGI for Cc1ccccc1-n1c2nc(=O)n(C)c(=O)c-2nc2ccccc21 : 6.94

// recorded TGI for O=C1C(Cl)N(c2cccc([N+](=O)[O-])c2)C1c1c[nH]c2ccccc12 (centres undefined) : 54.8

---

Test system: OVCAR-5 ovarian
protocol_description: NCI tumour cell line growth inhibition, 48 h
Please go through the items and note down their GI50.

Bench note, OVCAR-5 ovarian: entry CC(=O)[CH-]C(=O)c1ccccc1.CC(=O)[CH-]C(=O)c1ccccc1.C[C@]12CCC(=O)C=C1CC[C@@H]1C2CC[C@@]2(C)C1CC[C@@H]2[O-].C[C@]12CCC(=O)C=C1CC[C@@H]1C2CC[C@@]2(C)C1CC[C@@H]2[O-].Cl.[Ti+4] (some centres not stated) , its GI50 = 11.8 µM

Bench note, OVCAR-5 ovarian: entry O=C(c1ccco1)c1c(C(F)(F)F)n([O-])c2ccc(Cl)cc2[n+]1=O , its GI50 = 1.47 µM

Bench note, OVCAR-5 ovarian: entry C[C@@H](Oc1ccc(C(=O)NS(=O)(=O)C(C)(C)C)cc1C(F)(F)F)c1ccc(Oc2ccccc2)cn1 , its GI50 = 3.46 µM

Bench note, OVCAR-5 ovarian: entry NCC1OC(OC2C(CO)OC(OC3C(O)C(N)CC(N)C3OC3OC(CO)C(O)CC3N)C2O)C(N)C(O)C1OC1OC(CO)C(O)C(O)C1O (configuration not stated) , its GI50 = > 50 µg/mL

Bench note, OVCAR-5 ovarian: entry Cn1c(NCC(O)CN2CCCC2)cc(=O)n(C)c1=O (configuration not stated) , its GI50 = > 100 µM

Bench note, OVCAR-5 ovarian: entry COc1ccc(/C=C/C(=O)c2ccc(OC)c(OC)c2)cc1O , its GI50 = 4.94 µM

Bench note, OVCAR-5 ovarian: entry Cc1ccc(NC(=O)c2sc3nc4c(cc3c2N)C(=O)CCC4)cc1C , its GI50 = 3.16 µM
